Test system: CCRF-CEM leukemia
experimentalProtocol: NCI-60 one-dose screen, 48 h
conditionSummary: 10 µM unless noted
Procedure: Growth inhibition of the CCRF-CEM human tumor cell line is measured as a screen for anti-cancer activity. Cells are grown in 96 well plates and exposed to the test compound for 48 hours. Compounds are tested at a single concentration, which is 10^-5 M for most compounds. The reported endpoint is percent growth (GI% or GIPRCNT), where numbers from 0 - 100% represent growth inhibition, and numbers from -100% - 0 represent cell death. For example, a value of 40 represents 60% growth inhibition. […]
About 83,000 compounds went through this panel and 20% of them were active in at least one assay; those are over-represented in the sample as a whole. The source made the active and inactive calls. Rule for the calls: active = growth percent below 10; inactive = the rest.
Please reply with one of these outcomes: active, inactive

Answer briefly: the call reported for "COc1cc2cc(Oc3ccc(NC(=O)Nc4cc(C(F)(F)F)cc(C(F)(F)F)c4)cc3)c(C)nc2cc1OCCN1CCOCC1" in this assay.
active

Answer briefly: the call reported for "COc1cc2cc(Oc3ccc(NC(=O)Nc4cccc(C(F)(F)F)c4)cc3)c(C)nc2cc1OCCN1CCOCC1" in this assay.
inactive

Answer briefly: the call reported for "c1ccc(Nc2cc(-c3cccnc3)[nH]n2)cc1" in this assay.
inactive

Answer briefly: the call reported for COc1cc(C2CC(c3ccc(SC)cc3)=NN2C(C)=O)cc(OC)c1OC (centres undefined) in this assay.
inactive

Answer briefly: the call reported for "NS(=O)(=O)c1ccc(-n2nc(-c3ccc(Cl)cc3)c3ccccc3c2=O)cc1" in this assay.
inactive

Answer briefly: the call reported for "O=c1c2cc(C(F)(F)F)ccc2sc2c(NCCCNCCO)nc3ccccc3c12" in this assay.
active

Answer briefly: the call reported for "O=S(=O)(Nc1ccc(-c2nc(-c3cccc(OCCN4CCOCC4)c3)c(-c3ccnc(Br)c3)[nH]2)cc1)c1ccccc1" in this assay.
inactive

Answer briefly: the call reported for "O=C(Nc1ccc(Br)cc1F)c1cc(Br)ccc1O" in this assay.
inactive

Answer briefly: the call reported for CC1=C(SCCC(=O)OC(C[Se]C2=C(C)C(=O)c3ccccc3C2=O)C(=O)NC(C)(C)C)C(=O)c2ccccc2C1=O (centres undefined) in this assay.
active

Answer briefly: the call reported for COc1cc(C2CC(c3cccc(Br)c3)=NN2C(C)=O)cc(OC)c1OC (centres undefined) in this assay.
inactive

Answer briefly: the call reported for CCCC1CCC(O)(C(C)(O)C(=O)NC2C(=O)N3NCCCC3C(=O)N(O)C(C)C(=O)N3NCCCC3C(=O)N3NCC(O)CC3C(=O)NC(C)C(=O)OC2C(C)C)OC1CC (centres undefined) in this assay.
active

Answer briefly: the call reported for "COc1cccc(Cc2cc(-c3ccccc3)nn(CC(=O)c3ccccc3)c2=O)c1" in this assay.
inactive

Answer briefly: the call reported for "COc1cc(Nc2cn[nH]c2-c2ccc(Cl)cc2)cc(OC)c1OC" in this assay.
inactive

* * *

Tested on: PC-3 prostate
experimentalProtocol: NCI-60 one-dose screen, 48 h
conditionSummary: 10 µM unless noted
Compounds without any hit were thinned out: in the full panel of roughly 83,000, 20% have a hit. Active and inactive are the calls of the source. How the source made its calls: active means growth percent below 10; inactive means the rest.
Please reply with one of these outcomes: active, inactive

compound	classification
COc1ccc(-c2nn(C(=O)c3cc(OC)c(OC)c(OC)c3)c3cc(N)ccc23)cc1	inactive

Answer briefly: the call reported for "Cn1cc(-c2cc3ncnc(Nc4ccc(CC(=O)Nc5cc(C(C)(C)C)nn5C)cc4)c3s2)cn1" in this assay.
inactive

Answer briefly: the call reported for "O=C1c2cccc3cccc(c23)C(=O)N1Nc1nc(NC2CCCCC2)nc(N2CCOCC2)n1" in this assay.
inactive

* * *

Reported values of growth for individual entries
Tested on: PC-3 prostate
experimentalProtocol: NCI-60 one-dose screen, 48 h (100 = growth as untreated, 0 = no growth, -100 = all killed)
conditionSummary: 10 µM unless noted
About 83,000 compounds went through this panel and 20% of them were active in at least one assay; those are over-represented in the sample as a whole.
Give the number; % is assumed, so skip it.

Example results:
CCCCNC(=O)Oc1ccc(/C(=C(\C)c2ccc(Cl)cc2)c2ccc(OCCN(CC)CC)cc2)cc1 60.9
CN1CCN(CC(=O)N2c3cccc4cccc(c34)N(C(=O)CN3CCN(C)CC3)C2c2cn(-c3ccccc3)nc2-c2cccc([N+](=O)[O-])c2)CC1 22.6
CCCCCCNC(=O)Oc1ccc(/C(=C(\C)c2ccc(Cl)cc2)c2ccc(OCCCN(C)C)cc2)cc1 79.6

Please examine the following record next.
Enter recorded growth with PC-3 prostate for "COc1cccc2c(=O)c3c(sc12)c(NCCCN)nc1ccccc13" here.
55.9

* * *

System: SK-MEL-28 melanoma
experimentalProtocol: NCI-60 one-dose screen, 48 h (100 = growth as untreated, 0 = no growth, -100 = all killed)
conditionSummary: 10 µM unless noted
This is part of a sample that, as a whole, favours compounds with a hit. Of some 83,000 tested, about 20% had one in any assay.
Reported values of growth for individual entries
Give the number; % is assumed, so skip it.

Example results:
compound	val
O=c1c2cc(C(F)(F)F)ccc2sc2c(NCCCNCCO)nc3ccccc3c12	55.5
C=C1CC[C@@]2(C#N)[C@H]3[C@H](CC[C@@H]2C)[C@@H](C)C[C@@H](CC(C)(C)C#N)[C@H]13	60.3
CC1=NN(c2ccc(S(=O)(=O)O)cc2)C(=O)C1N=Nc1ccc(-c2ccc(N=Nc3ccc(OS(=O)(=O)c4ccc(C)cc4)cc3)c(S(=O)(=O)O)c2)cc1 (centres undefined)	103
CCS(=O)(=O)c1ncnc2nc[nH]c12	107
O=C(CSc1nccc(Nc2ccc(S(=O)(=O)Nc3nccs3)cc2)n1)c1ccc(C(F)(F)F)cc1	108

Enter recorded growth with SK-MEL-28 melanoma for COc1ccc2c(c1)C(C)Cc1c(ncnc1-n1c(C)nc3ccccc31)N2C (centres undefined) here.
66.4

Enter recorded growth with SK-MEL-28 melanoma for "O=c1ccc(N=Nc2ccccc2)ccc1Cl" here.
92.5

Enter recorded growth with SK-MEL-28 melanoma for "CCC(=O)Nc1ccc(-c2nc(-c3cccc(OC)c3)c(-c3ccnc(Br)c3)[nH]2)cc1" here.
66

Enter recorded growth with SK-MEL-28 melanoma for "COc1ccc(C(=O)n2nc(-c3ccccc3)nc2N)cc1OC" here.
107

* * *

Test system: PC-3 prostate
experimentalProtocol: NCI-60 one-dose screen, 48 h (100 = growth as untreated, 0 = no growth, -100 = all killed)
conditionSummary: 10 µM unless noted
This is part of a sample that, as a whole, favours compounds with a hit. Of some 83,000 tested, about 20% had one in any assay.
resultType: growth (%)
Give the number; % is assumed, so skip it.

Example results:
molecule	units	val
CCCSc1nc2ccc(C)cc2cc1/C=[N+](\[O-])c1ccccc1	%	23.1
CCCCCCCCCCCCCCCCCCOc1ccccc1CCCOP(=O)(O)OCC[N+](C)(C)C	%	0.281
Cc1ccc2sc3c(NCCCN)nc4ccccc4c3c(=O)c2c1	%	65.4
COc1cccc(Cc2nn3cc(-c4ccccc4)nc3s2)c1	%	96.5
O=C(Nc1ccc(-c2nc(-c3cccc(OCCN4CCOCC4)c3)c(-c3ccnc(Br)c3)[nH]2)cc1)c1ccccc1	%	18.3
O=c1cc(SCc2ccccc2)nc[nH]1	%	97.7

Enter recorded growth with PC-3 prostate for "O=C(N/N=C/c1c(Cl)cccc1Cl)c1ccc(C(F)(F)F)nc1Nc1cccc(C(F)(F)F)c1" here.
7.85

Enter recorded growth with PC-3 prostate for "Cc1nc(S(=O)(=O)c2ccccc2)c(S(=O)(=O)Cc2ccc([N+](=O)[O-])cc2)o1" here.
87.9

Enter recorded growth with PC-3 prostate for "COc1cc2cc(Oc3ccc(NC(=O)Nc4cc(C(F)(F)F)cc(C(F)(F)F)c4)cc3)c(C)nc2cc1OCCN1CCOCC1" here.
10.5

Enter recorded growth with PC-3 prostate for "COc1ccc(CN2c3ccccc3CCc3ccccc32)cc1F" here.
24.1

Enter recorded growth with PC-3 prostate for "CCN(CC)Cc1cc(Nc2c3ccc(Cl)cc3nc3ccc(OC)cc23)ccc1O" here.
78

Enter recorded growth with PC-3 prostate for "FC(F)(F)c1cc(Nc2ccc3c(OCCCN4CCOCC4)cccc3n2)ccc1Cl" here.
33.5

Enter recorded growth with PC-3 prostate for "COc1ccc(-c2[nH]c3ccc(OC)cc3c2/C=C(\C#N)S(=O)(=O)c2ccccc2)cc1" here.
24.8

Enter recorded growth with PC-3 prostate for COC1=C(C)C(=O)c2c(c(CCCl)c3n2CCC3O)C1=O (stereo unspecified) here.
-2.49

Enter recorded growth with PC-3 prostate for Cc1cc(O)c(C2=NN(c3ccc(S(N)(=O)=O)cc3)C(/C=C/c3ccccc3)C2)cc1Cl (stereo unspecified) here.
32.6

Enter recorded growth with PC-3 prostate for "C#C[C@]1(O)CC[C@H]2[C@@H]3CC=C4c5sc(Nc6cc(F)ccc6F)nc5CC[C@]4(C)[C@H]3CC[C@@]21C" here.
-8.02

Enter recorded growth with PC-3 prostate for "Cc1ccc(-c2cnc3sc(C(=O)NCCc4ccccc4)c(C)n23)cc1" here.
81.7

Enter recorded growth with PC-3 prostate for "COc1ccc(C(=O)N=Nc2c(O)n(C)c3ccccc23)cc1" here.
90.9

Origin of measurements: PubChem BioAssay (NCI)
